system: P388 leukemia ip, CD2F1 mice, survival T/C; assay: NCI In Vivo Anticancer Drug Screen. Data for tumor model P388 Leukemia (intraperitoneal) in CD2F1 (CDF1) mice; conditions: endpoint: median survival time; dose: 100.0 mg/kg/injection; schedule: Q01DX005 (ip); vehicle: Klucel (hydroxypropylcellulose) (HPC); higher = longer survival
Inconclusive results and toxic doses are left out.
# Lookup of reported T/C keyed by entry
Quantity: T/C

[
  {
    "Compound": "Oc1ccc(O)c(-c2c(-c3ccccc3)cc3ccccn23)c1",
    "Result Value": "104 % of control"
  },
  {
    "Compound": "Cc1c2occc2cc2c1oc(=O)c1cnccc12",
    "Result Value": "100 % of control"
  },
  {
    "Compound": "Cc1nc2c(cnn2C)c(=O)n1C",
    "Result Value": "111 % of control"
  },
  {
    "Compound": "COc1ccc(CCNC(=O)CC2CCN(Cc3ccccc3)CC2)cc1OC",
    "Result Value": "100 % of control"
  },
  {
    "Compound": "Cc1ccc(C(=Nc2ccccc2Cl)N(O)c2ccccc2)cc1",
    "Result Value": "102 % of control"
  },
  {
    "Compound": "COc1cc(-c2nn(CN3CCN(Cn4nc(-c5cc(OC)c(OC)c(OC)c5)oc4=S)CC3)c(=S)o2)cc(OC)c1OC",
    "Result Value": "87 % of control"
  },
  {
    "Compound": "O=C(/C(O)=C(\\O)C(=O)N(C1CCCCC1)C1CCCCC1)N(C1CCCCC1)C1CCCCC1",
    "Result Value": "100 % of control"
  },
  {
    "Compound": "CCCOC1=NC2=NC(OCCC)=NC3=C(Br)C=C(Br)C(=N1)N23",
    "Result Value": "94 % of control"
  },
  {
    "Compound": "O=C(O)c1ccc2c3c(n[se]c13)-c1ccccc1C2=O",
    "Result Value": "103 % of control"
  },
  {
    "Compound": "Cc1cc(=S)c2cc3c(cc2[nH]1)OCO3",
    "Result Value": "101 % of control"
  },
  {
    "Compound": "O=C(O)/C(=C/c1ccc([N+](=O)[O-])cc1)c1ccccc1",
    "Result Value": "95 % of control"
  },
  {
    "Compound": "Cc1cc2nc3c(C4OCC(O)C4O)nn(-c4ccccc4)c3nc2cc1C (configuration not stated)",
    "Result Value": "93 % of control"
  },
  {
    "Compound": "C=C1CC(C)(C)CN(Cc2ccc([N+](=O)[O-])cc2)C(C(=O)OC)=C1C(=O)OC",
    "Result Value": "95 % of control"
  },
  {
    "Compound": "CC1NC(=O)N(Cc2ccccc2Cl)C1=O (configuration not stated)",
    "Result Value": "106 % of control"
  },
  {
    "Compound": "Cc1cc(C(O)(C(F)(F)F)C(F)(F)F)c(N)c(C(O)(C(F)(F)F)C(F)(F)F)c1",
    "Result Value": "103 % of control"
  },
  {
    "Compound": "Nc1nc(N)c(Cc2ccncc2)cc1Cc1ccncc1",
    "Result Value": "101 % of control"
  },
  {
    "Compound": "CCN(CC)CCOC(=O)C(OCCOc1ccccc1)(c1ccccc1)c1ccccc1",
    "Result Value": "117 % of control"
  },
  {
    "Compound": "Oc1ccccc1-c1cc(-c2ccccc2)nc(NCCCNc2nc(-c3ccccc3)cc(-c3ccccc3O)n2)n1",
    "Result Value": "88 % of control"
  },
  {
    "Compound": "CCOC(=O)c1c(C(=O)OCC)c(C)n(/N=N/n2c(C)c(C(=O)OCC)c(C(=O)OCC)c2C)c1C",
    "Result Value": "87 % of control"
  },
  {
    "Compound": "Cc1nc(Nc2ccccc2C)c2ccsc2n1",
    "Result Value": "87 % of control"
  },
  {
    "Compound": "Cc1ccc(S(=O)(=O)N(N)CCC#N)cc1",
    "Result Value": "97 % of control"
  },
  {
    "Compound": "COc1ccc(C(=O)C(CCC(=O)c2ccc(O)cc2)S(C)(=O)=O)cc1 (configuration not stated)",
    "Result Value": "93 % of control"
  }
]

----------
tested on: P388 leukemia ip, CD2F1 mice, survival T/C; experiment: NCI In Vivo Anticancer Drug Screen. Data for tumor model P388 Leukemia (intraperitoneal) in CD2F1 (CDF1) mice; settings: endpoint: median survival time; dose: 25.0 mg/kg/injection; schedule: Q01DX001 (ip); vehicle: saline with Tween-80; higher = longer survival
Inconclusive results and toxic doses are left out.
Quantity: T/C

[
  {
    "Compound": "Fc1ccc2[nH]cc(C3CCCN4CCCCC34)c2c1 (centres undefined)",
    "Quantity": "T/C",
    "Result Value": "101 % of control"
  },
  {
    "Compound": "Nc1cccc2cccc([N+](=O)[O-])c12",
    "Quantity": "T/C",
    "Result Value": "97 % of control"
  },
  {
    "Compound": "CC(C)(C)c1cc2c3c(c1)C(C)(C)OS314(OC2=O)OC(=O)c2cc(C(C)(C)C)cc(c21)C(C)(C)O4",
    "Quantity": "T/C",
    "Result Value": "111 % of control"
  },
  {
    "Compound": "c1ccc2c(c1)N=Nc1ccccc1OCCOCCOCCO2",
    "Quantity": "T/C",
    "Result Value": "103 % of control"
  }
]

----------
Test system: P388 leukemia ip, CD2F1 mice, survival T/C
Test: NCI In Vivo Anticancer Drug Screen. Data for tumor model P388 Leukemia (intraperitoneal) in CD2F1 (CDF1) mice
Conditions: endpoint: median survival time; dose: 6.25 mg/kg/injection; schedule: Q01DX009 (ip); vehicle: saline; higher = longer survival
Experimental: The antitumor activity of compounds was measured in mice bearing transplantable tumors. Survival or tumor size were measured and the results are expressed as the measurement made in the treated group (T) divided by the measurement made in the vehicle treated control group (C). The tumor model used in this assay is P388 Leukemia (intraperitoneal) in CD2F1 (CDF1) mice
Toxic doses and inconclusive results are not listed.
# Lookup of reported T/C keyed by entry
Quantity: T/C

[
  {
    "Compound": "O=C1OC2C(COC(=O)c3cc(O)c(O)c(O)c3)OC(OC(=O)c3cc(O)c(O)c(O)c3)C(OC(=O)c3cc(O)c(O)c4c3C3C1=CC(=O)[C@](O)(O4)C3(O)O)C2OC(=O)c1cc(O)c(O)c(O)c1 (some centres undefined)",
    "Subject Of Test": "P388 leukemia ip, CD2F1 mice, survival T/C",
    "Result Value": "98 % of control"
  },
  {
    "Compound": "C[N+]1(CCC(=O)c2ccccc2)CCOCC1",
    "Subject Of Test": "P388 leukemia ip, CD2F1 mice, survival T/C",
    "Result Value": "100 % of control"
  },
  {
    "Compound": "C[N+]1(Cc2ccccc2)C2CCC1C(CCl)C(O)C2 (centres undefined)",
    "Subject Of Test": "P388 leukemia ip, CD2F1 mice, survival T/C",
    "Result Value": "115 % of control"
  },
  {
    "Compound": "O=c1[nH]cnc2[nH]cc([N+](=O)[O-])c12",
    "Subject Of Test": "P388 leukemia ip, CD2F1 mice, survival T/C",
    "Result Value": "102 % of control"
  },
  {
    "Compound": "C=CCN(CC=C)C(N)=Nc1ccc(Cl)cc1",
    "Subject Of Test": "P388 leukemia ip, CD2F1 mice, survival T/C",
    "Result Value": "100 % of control"
  },
  {
    "Compound": "N#CN=CN1CC2CCC(CC2)C1",
    "Subject Of Test": "P388 leukemia ip, CD2F1 mice, survival T/C",
    "Result Value": "102 % of control"
  },
  {
    "Compound": "OC(/C=C\\CC(O)(C(F)(F)F)C(F)(F)F)(C(F)(F)F)C(F)(F)F",
    "Subject Of Test": "P388 leukemia ip, CD2F1 mice, survival T/C",
    "Result Value": "106 % of control"
  },
  {
    "Compound": "[Br][Pt].[NH-]CC[N-]CC[NH-]",
    "Subject Of Test": "P388 leukemia ip, CD2F1 mice, survival T/C",
    "Result Value": "100 % of control"
  },
  {
    "Compound": "O=C1C=C(Cl)C(O)C1(Cl)Cl (centres undefined)",
    "Subject Of Test": "P388 leukemia ip, CD2F1 mice, survival T/C",
    "Result Value": "94 % of control"
  }
]
